Values compiled from patent US20110091994A1.

Please provide measured IMAP Y2H IMAP2 (number of IST) for the entries that follow.
Biological target: T1, HCV ORFs (Gal4-DB fusions) (Hepatitis C virus genotype 1b, UniProt Q9WMX2);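 also: yeast two-hybrid screens using HCV genotype 1b proteins fused to Gal4-DB as baits against prey cDNA libraries from human spleen and foetal brain, IMAP1 via transformation and IMAP2 via mating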
T1 construct: expressed in transfected cells; host or cells: Saccharomyces cerevisiae MAV203 (IMAP1) / AH109 (IMAP2)
T1 sequence (Q9WMX2 1027-1657): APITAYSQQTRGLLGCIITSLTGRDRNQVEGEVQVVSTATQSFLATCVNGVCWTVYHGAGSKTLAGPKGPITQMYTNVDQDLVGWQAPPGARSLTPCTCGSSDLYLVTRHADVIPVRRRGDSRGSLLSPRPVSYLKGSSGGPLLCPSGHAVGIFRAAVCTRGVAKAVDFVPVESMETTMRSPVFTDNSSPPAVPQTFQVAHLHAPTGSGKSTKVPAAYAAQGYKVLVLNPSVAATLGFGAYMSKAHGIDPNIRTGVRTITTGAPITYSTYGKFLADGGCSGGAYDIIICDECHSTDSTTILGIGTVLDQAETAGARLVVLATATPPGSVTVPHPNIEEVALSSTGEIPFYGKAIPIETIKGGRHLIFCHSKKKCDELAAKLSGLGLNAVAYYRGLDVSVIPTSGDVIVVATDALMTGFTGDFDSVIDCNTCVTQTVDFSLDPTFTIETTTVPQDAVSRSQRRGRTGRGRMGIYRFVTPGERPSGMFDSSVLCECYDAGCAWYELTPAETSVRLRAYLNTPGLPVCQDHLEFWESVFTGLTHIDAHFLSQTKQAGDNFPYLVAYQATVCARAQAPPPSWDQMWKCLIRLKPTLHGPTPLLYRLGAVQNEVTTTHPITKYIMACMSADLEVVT
Format: binding, HCV genotype 1b, isolate con1
Settings: HCV protein NS3 as bait; human protein as prey
Give bare numbers.

>>> test_value("PSMB9 (protein, UniProt P28065 21-219, looked up) Proteasome subunit beta type-9: TTIMAVEFDGGVVMGSDSRVSAGEAVVNRVFDKLSPLHERIYCALSGSAADAQAVADMAAYQLELHGIELEEPPLVLAAANVVRNISYKYREDLSAHLMVAGWDQREGGQVYGTLGGMLTRQPFAIGGSGSTFIYGYVDAAYKPGMSPEECRRFTTDAIALAMSRDGSSGGVIYLVTITAAGVDHRVILGNELPKFYDE")
1

Turning to the following molecule.
Problem: Fill blank: measured IMAP Y2H IMAP2 (number of IST) of the molecule NAP1L1 (protein, UniProt P55209 2-388, looked up) Nucleosome assembly protein …: ADIDNKEQSELDQDLDDVEEVEEEETGEETKLKARQLTVQMMQNPQILAALQERLDGLVETPTGYIESLPRVVKRRVNALKNLQVKCAQIEAKFYEEVHDLERKYAVLYQPLFDKRFEIINAIYEPTEEECEWKPDEEDEISEELKEKAKIEDEKKDEEKEDPKGIPEFWLTVFKNVDLLSDMVQEHDEPILKHLKDIKVKFSDAGQPMSFVLEFHFEPNEYFTNEVLTKTYRMRSEPDDSDPFSFDGPEIMGCTGCQIDWKKGKNVTLKTIKKKQKHKGRGTVRTVTKTVSNDSFFNFFAPPEVPESGDLDDDAEAILAADFEIGHFLRERIIPRSVLYFTGEAIEDDDDDYDEEGEEADEEGEEEGDEENDPDYDPKKDQNPAEC is ____.
Result: 1
